target: human recombinant dopamine D2L receptor (Homo sapiens, UniProt P14416); construct: expressed in transfected cells; host or cells: CHO cells; assay: Dopamine D2L radioligand binding ([3H]Spiperone); details: percent inhibition of specific binding
Sequence (P14416 whole entry): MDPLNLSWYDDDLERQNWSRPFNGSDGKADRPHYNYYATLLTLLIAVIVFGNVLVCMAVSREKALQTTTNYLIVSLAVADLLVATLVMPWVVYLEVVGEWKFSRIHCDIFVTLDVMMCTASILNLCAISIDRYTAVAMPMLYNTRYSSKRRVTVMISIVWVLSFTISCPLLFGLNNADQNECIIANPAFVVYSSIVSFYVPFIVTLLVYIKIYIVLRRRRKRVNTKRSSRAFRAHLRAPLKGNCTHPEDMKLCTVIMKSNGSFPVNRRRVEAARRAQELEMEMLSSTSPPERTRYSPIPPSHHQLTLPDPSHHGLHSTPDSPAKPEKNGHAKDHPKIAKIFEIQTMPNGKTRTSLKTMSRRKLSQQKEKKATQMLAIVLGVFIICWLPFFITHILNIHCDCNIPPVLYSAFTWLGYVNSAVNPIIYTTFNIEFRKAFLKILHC
Where Inhibition of ligand binding, Dop. D2L equals or exceeds 30%, the correct label is criterion met; where it does not, the label is criterion not met.

1) CC1CCN(C(=O)CCn2c3c(c4cc(Cl)ccc42)CN(C)CC3)CC1 [Compound 325]; criterion not met
2) CN1CCc2c(c3cc(F)ccc3n2CCc2ccc(Cl)cc2)C1 [Compound 249]; criterion met
3) Cc1ccc2c(c1)c1c(n2CCc2ccccc2F)CCN(C)C1 [Compound 34]; criterion met
4) CN1CCc2c(c3cc(Cl)ccc3n2C[C@@](C)(O)c2ccc(F)cc2)C1 [Compound 110]; criterion met
5) Cc1cccc2c3c(n(CCc4ccc(C(F)(F)F)nc4)c12)CCN(C)C3 [Compound 380]; criterion not met
6) CC1CCCCN1C(=O)Cn1c2c(c3cc(Cl)ccc31)CN(C)CC2 (stereo not drawn) [Compound 321]; criterion not met
7) Cc1cncc(CCn2c3c(c4cc(C)ccc42)CN(C)CC3)c1 [Compound 429]; criterion not met
8) Cc1ccc2c(c1)c1c(n2CCC2CCCCC2)CCN(C)C1 [Compound 163]; criterion met
9) Cc1ccc2c(c1)c1c(n2CCc2ccncc2)CCN(C)C1 [Compound 22]; criterion not met
10) Cc1ccc2c(c1)c1c(n2CC(=O)N2CCC(C)CC2)CCN(C)C1 [Compound 251]; criterion not met
11) Cc1ccc2c(c1)c1c(n2CCc2cncc(Cl)c2)CCN(C)C1 [Compound 443]; criterion not met
12) CN1CCc2c(c3cc(Cl)ccc3n2CCC(=O)N2CCCCC2)C1 [Compound 326]; criterion not met
13) Cc1ccc2c(c1)c1c(n2CC(=O)N2Cc3ccccc3C2)CCN(C)C1 [Compound 397]; criterion not met
14) Cc1ncc(CCn2c3c(c4cc(Cl)ccc42)CN(C)CC3)cn1 [Compound 361]; criterion met
15) Cc1ccc2c(c1)c1c(n2CCc2ccc(C(C)C)nc2)CCN(C)C1 [Compound 360]; criterion met
16) Cc1ccc2c(c1)c1c(n2CCc2ccc(Cl)cc2)CCN(C)C1 [Compound 32]; criterion met
17) CN1CCc2c(c3cc(Cl)ccc3n2CCc2cccnc2)C1 [Compound 55]; criterion not met
18) CCCc1ccc(CCn2c3c(c4cc(C)ccc42)CN(C)CC3)cn1 [Compound 452]; criterion met

---

Entries and their Inhibition of ligand binding, Ser. 5-HT6 values follow.
target: human recombinant serotonin (5-Hydroxytryptamine) 5-HT6 receptor (Homo sapiens, UniProt P50406); construct: expressed in transfected cells; host or cells: human HeLa cells; assay: Serotonin 5-HT6 radioligand binding ([3H]LSD); parameters: concentration or dose not given beside the values; conditions: percent inhibition of specific binding
Sequence (P50406 whole entry): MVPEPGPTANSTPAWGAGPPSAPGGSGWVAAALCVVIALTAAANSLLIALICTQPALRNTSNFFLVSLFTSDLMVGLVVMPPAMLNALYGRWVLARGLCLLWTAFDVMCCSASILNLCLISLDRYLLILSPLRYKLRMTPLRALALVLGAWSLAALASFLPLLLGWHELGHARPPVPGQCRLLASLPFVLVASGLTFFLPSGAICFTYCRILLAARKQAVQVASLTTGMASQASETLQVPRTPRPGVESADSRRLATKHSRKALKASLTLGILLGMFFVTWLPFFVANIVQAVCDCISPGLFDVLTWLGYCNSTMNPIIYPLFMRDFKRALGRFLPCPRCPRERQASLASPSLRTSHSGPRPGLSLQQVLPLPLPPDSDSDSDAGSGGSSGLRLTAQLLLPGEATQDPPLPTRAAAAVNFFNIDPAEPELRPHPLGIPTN
MEASUREMENT LABEL: Inhibition of ligand binding, Ser. 5-HT6 (%)

1. CN1CCc2c(c3cc(Cl)ccc3n2CCc2cncc(C(F)(F)F)c2)C1 [Compound 426]; 65
2. Cc1ccc2c(c1)c1c(n2CCc2ccc(C)nc2)CCNC1 [Compound 230]; 45
3. CN1CCc2c(c3cc(Cl)ccc3n2CCC(=O)N2CCCC2)C1 [Compound 240]; 25
4. CCN1CCc2c(c3cc(C)ccc3n2Cc2ccccc2)C1 [Compound 140]; 8
5. Cc1ccc(CCn2c3c(c4cc(C(C)C)ccc42)CN(C)CC3)cn1 [Compound 392]; 61
6. CN1CCc2c(c3cc(Cl)ccc3n2CCc2ccccc2)C1 [Compound 36]; 104
7. CCOC(=O)N1CCc2c(c3cc(-c4cccnc4)ccc3n2CCc2ccc(C)nc2)C1 [Compound 19]; −5
8. CC1CCN(C(=O)Cn2c3c(c4cc(Cl)ccc42)CN(C)CC3)CC1 [Compound 237]; 20
9. Cc1ccc2c(c1)c1c(n2CCC(=O)N2CCC(N)CC2)CCN(C)C1 [Compound 231]; 3
10. Cc1ccc2c(c1)c1c(n2CC(=O)N2CCCC2)CCN(C)C1 [Compound 257]; 2
11. CN1CCc2c(c3cc(Cl)ccc3n2CCc2ccc(Cl)cc2)C1 [Compound 45]; 103
12. COc1ccc(CCn2c3c(c4cc(Cl)ccc42)CN(C)CC3)cc1 [Compound 336]; 104
13. Cc1ccc(CCn2c3c(c4cc(C(=O)O)ccc42)CN(C)CC3)cn1 [Compound 256]; 2
14. Cc1ccc2c(c1)c1c(n2Cc2ccccc2)CCN(C)C1 [Compound 137]; 12
15. CN1CCc2c(c3cc(Cl)ccc3n2CC(=O)N2CCCC2)C1 [Compound 243]; 12
16. Cc1ccc2c(c1)c1c(n2CCc2ccc(Cl)cc2)CCN(C)C1 [Compound 32]; 101
17. Cc1ccc2c(c1)c1c(n2CCc2ccccn2)CCN(C)C1 [Compound 21]; 79
18. CCN1CCc2c(c3ccccc3n2Cc2ccccc2)C1 [Compound 16]; 6

---

target: human recombinant histamine H1 receptor (Homo sapiens); construct: expressed in transfected cells; host or cells: CHO cells; assay: Histamine H1 radioligand binding ([3H]Pyrilamine); settings: compounds screened at 1 μM; read-out: Inhibition of ligand binding, Hist. H1 (percent inhibition of specific binding)
Sequence (P35367 whole entry): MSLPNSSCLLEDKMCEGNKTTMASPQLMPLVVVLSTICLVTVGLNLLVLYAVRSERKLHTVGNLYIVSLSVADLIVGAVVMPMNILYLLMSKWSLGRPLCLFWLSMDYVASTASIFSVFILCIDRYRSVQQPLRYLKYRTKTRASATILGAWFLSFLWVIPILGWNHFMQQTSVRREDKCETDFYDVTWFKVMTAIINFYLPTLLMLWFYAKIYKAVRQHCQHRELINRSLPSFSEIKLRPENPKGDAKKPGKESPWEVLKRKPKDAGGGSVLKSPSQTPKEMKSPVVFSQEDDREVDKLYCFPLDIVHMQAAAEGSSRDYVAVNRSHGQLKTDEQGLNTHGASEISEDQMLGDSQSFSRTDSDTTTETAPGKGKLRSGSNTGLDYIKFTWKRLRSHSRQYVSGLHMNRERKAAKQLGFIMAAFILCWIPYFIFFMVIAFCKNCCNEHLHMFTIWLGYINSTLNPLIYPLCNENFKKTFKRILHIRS
MEASUREMENT LABEL: inhibition at 1 µM (%)

1. CN1CCc2c(c3ncccc3n2CCc2ccccn2)C1 [Compound 484]; 7
2. CN1CCc2c(c3ccccc3n2CCc2noc(-c3ccccc3)n2)C1 [Compound C4-1]; 93
3. CN1CCc2c(c3cc(F)ccc3n2CCc2nc(-c3ccccc3)cs2)C1 [Compound C1-7]; 99
4. CN1CCc2c(c3cc(Cl)ccc3n2CCc2noc(-c3ccccc3)n2)C1 [Compound C4-6]; 100
5. CN1CCc2c(c3cc(I)ccc3n2CC(=O)N2CCCCC2)C1 [Compound 486]; 28
6. Cc1ccc2c(c1)c1c(n2CCc2noc(-c3ccccc3)n2)CCN(C)C1 [Compound C4-4]; 101

---

Entries and their Inhibition of ligand binding, Adren. alpha1D values follow.
Target: human recombinant adrenergic α1D receptor (Homo sapiens, UniProt P25100)
Construct: expressed in transfected cells; host or cells: HEK-293 cells
Sequence (P25100 whole entry): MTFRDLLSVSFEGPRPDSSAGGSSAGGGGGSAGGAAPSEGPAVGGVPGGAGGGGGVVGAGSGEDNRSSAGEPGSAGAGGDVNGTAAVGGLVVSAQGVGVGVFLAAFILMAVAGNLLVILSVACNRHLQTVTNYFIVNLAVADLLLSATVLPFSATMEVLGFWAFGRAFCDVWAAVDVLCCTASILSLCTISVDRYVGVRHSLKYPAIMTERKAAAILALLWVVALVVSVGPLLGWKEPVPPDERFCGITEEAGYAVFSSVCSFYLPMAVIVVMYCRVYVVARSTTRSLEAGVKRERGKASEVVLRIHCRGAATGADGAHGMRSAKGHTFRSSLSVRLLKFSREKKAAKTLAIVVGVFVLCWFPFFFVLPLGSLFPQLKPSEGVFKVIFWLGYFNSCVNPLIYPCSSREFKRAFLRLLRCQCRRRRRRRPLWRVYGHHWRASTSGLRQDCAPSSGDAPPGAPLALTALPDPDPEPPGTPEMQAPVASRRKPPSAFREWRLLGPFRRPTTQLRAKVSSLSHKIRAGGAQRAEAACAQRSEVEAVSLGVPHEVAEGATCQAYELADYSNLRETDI
Experiment: Adrenergic α1D radioligand binding ([3H]Prozosin)
Design: concentration or dose not given beside the values
Details: percent inhibition of specific binding
Description: Compounds of invention were incubated with 0.6 nM [^3H]Prozosin for 60 minutes at 25° C. Non-specific binding was estimated in the presence of 10 μM phentolamine. Receptor proteins were filtered and washed, the filters were then counted to determine [^3H]Prozosin specifically bound. […] Biochemical assay results are presented as the percent inhibition of specific binding in Table 6.
MEASUREMENT LABEL: Inhibition of ligand binding, Adren. alpha1D

1) CCN1CCc2c(c3ccccc3n2Cc2ccccc2)C1; 12%
2) Cc1ccc2c(c1)c1c(n2CCN2CCCC2)CCN(C)C1; 30%
3) CC1CCN(C(=O)Cn2c3c(c4cc(Cl)ccc42)CN(C)CC3)CC1; 14%
